molecule	melting point
O=C(O)C1=Cc2cc(Cl)cc(COCc3ccccc3)c2OC1C(F)(F)F (stereo not drawn)	133.8 to 135.4 °C
Nc1ccc2c(c1)C=C(C(=O)O)C(C(F)(F)F)O2 (stereo not drawn)	126 to 133 °C
CCc1ccc2c(c1)OC(C(F)(F)F)C(C(=O)O)=C2 (stereo not drawn)	167 to 168.6 °C
CC(C)CNS(=O)(=O)c1ccc2c(c1)C=C(C(=O)O)C(C(F)(F)F)O2 (stereo not drawn)	190.6 to 192.4 °C
Cc1ccc2c(c1C)OC(C(F)(F)F)C(C(=O)O)=C2 (stereo not drawn)	245.2 to 247.3 °C
O=C(O)C1=Cc2cc(C(=O)c3ccc(O)cc3)ccc2OC1C(F)(F)F (stereo not drawn)	234 to 239.5 °C
Cc1cc2c(cc1Cl)C=C(C(=O)O)C(C(F)(F)F)O2 (stereo not drawn)	207.5 to 209.3 °C
Cc1cccc(C)c1Oc1cc2c(cc1Cl)C=C(C(=O)O)C(C(F)(F)F)O2 (stereo not drawn)	252.7 to 258.6 °C
O=C(O)C1=Cc2c(Cl)ccc(Cl)c2OC1C(F)(F)F (stereo not drawn)	205.7 to 207.1 °C
